- System: Ba/F3 KIT mutant cells
- assay.name: Ba/F3 mutant KIT Cell Proliferation Assays (resazurin)
- Assay type: cell-based
- measurement.conditions: Mus musculus, BaF3; Ba/F3 KIT exon11del-V654A mutant cell proliferation; read-out: exon11del-V654A IC50
- Source text: Ba/F3 KIT Mutant Cell Line Transduction and Expansion Several different KIT cDNA encoding various primary and secondary mutations were cloned into a pLV(Exp]-CMV>(cDNA):IRES:puro vector. These vectors were constructed and packaged by VectorBuilder. […] A serial dilution of test compound was dispensed into a 384-well black clear bottom plate (Corning, Corning, NY). […] Plates were read on a Synergy2 reader (Biotek, Winooski, VT) using an excitation of 540 nm and an emission of 600 nm. […]
IC50 listing for selected compounds.

Please review the entries below; each comes with its answer.
compound: COCCOc1cc(F)c2c(Nc3ccc(NC(=O)CC(=O)N4CCC4(C)C)cc3)ncnc2c1 [Example 167]
value.reported: 100 to 1000 nM
--
compound: COCCOc1cc(F)c2c(Nc3ccc(NC(=O)CC(=O)N4CCCC4C(C)(C)C)cc3)ncnc2c1 (centres unmarked) [Example 189]
value.reported: 100 to 1000 nM
--
compound: COCCOc1cc(F)c2c(Nc3ccc(NC(=O)CCC(=O)N(C)C(C)C)cc3)ncnc2c1 [Example 67]
value.reported: 10 to 100 nM
--
compound: COCCOc1cc(F)c2c(Nc3ccc(NC(=O)CC(=O)NCC(C)(C)COC)cc3)ncnc2c1 [Example 86]
value.reported: 10 to 100 nM
--
compound: CN1CC[C@H](Oc2cc(F)c3c(Nc4ccc(NC(=O)NCCC(C)(C)F)cc4)ncnc3c2)C1 [Example 172]
value.reported: 10 to 100 nM
--
compound: COCCOc1cc(F)c2c(Nc3ccc(NC(=O)NCCC4COC4)cc3)ncnc2c1 [Example 27]
value.reported: > 1000 nM
--
compound: COCCOc1cc(F)c2c(Nc3ccc(NC(=O)CC(=O)N4CCC(C(F)(F)F)C4)cc3)ncnc2c1 (centres unmarked) [Example 153]
value.reported: 100 to 1000 nM
--
compound: COCCOc1cc(OC)c2c(Nc3ccc(NC(=O)NCCC(C)(C)C#N)cc3)ncnc2c1 [Example 182]
value.reported: 10 to 100 nM
--
compound: COCCOc1cc(F)c2c(Nc3ccc(NC(=O)NCCCC(C)(C)F)cc3)ncnc2c1 [Example 106]
value.reported: ≤ 10 nM
--
compound: COCCOc1cc(F)c2c(Nc3ccc(NC(=O)CCC(=O)NC(C)C)cc3)ncnc2c1 [Example 87]
value.reported: 100 to 1000 nM

Recorded IC50 for COCCOc1cc(F)c2c(Nc3ccc(NC(=O)COCC4CCOC4)cc3)ncnc2c1 (centres unmarked) [Example 59] , please?
10 to 100 nM

And the next one, COCCOc1cc(OC)c2c(Nc3ccc(NC(=O)CC(=O)NCC(C)(C)C)cc3)ncnc2c1 [Example 204] ?
100 to 1000 nM
